Source: PubChem BioAssay AID1259415

- TEST PROTOCOL: qHTS Assay for inhibitors of the human cytomegalovirus (HCMV)
- TEST CONDITIONS: HFF cells, HCMV-luciferase reporter, 72 h; at 57.5 µM
About 18,000 (4.4%) of roughly 410,000 compounds were called active. Inconclusive results (about 7%) are left out. No stated cut-off is given here; in the data, active means activity change below about -60%; inconclusive means no clear call, values can overlap the other calls; inactive means above about -39%. Shown is part of a subset that was picked to be rich in actives.
Result category, one only: active, inactive

Inquiry: Just curious, what result did Cc1ccccc1CN1C[C@@H]2C[C@@H](c3cn(C)nc3-c3ccccc3)N3CCC[C@@]23C1=O get here?
Reply text: inactive

Inquiry: Just curious, what result did COc1cccc(NC(=O)c2csnn2)c1 get here?
Reply text: inactive

Inquiry: Just curious, what result did Cn1cnc(S(=O)(=O)Nc2ccc3c(c2)OCCO3)c1 get here?
Reply text: inactive

Inquiry: Just curious, what result did CCCCn1c(N)c(N(CCC(C)C)C(=O)COC(=O)c2cccnc2OCC)c(=O)[nH]c1=O get here?
Reply text: inactive

New cases:
Inquiry: Just curious, what result did COc1cccc(C(=O)N2CCC(n3nccc3NC(=O)C3CCOC3)CC2)c1 (stereo unspecified) get here?
Reply text: inactive

Inquiry: Just curious, what result did Cn1ccnc1SCC(=O)Nc1ccc2c(c1)OCCO2 get here?
Reply text: inactive

Inquiry: Just curious, what result did CCCN1CCN(CCCNC(=O)Cn2nc(CC)n3c(cc4occc43)c2=O)CC1 get here?
Reply text: inactive

Inquiry: Just curious, what result did COc1ccc(-n2c(C)nc3c(cnn3-c3ccc(F)cc3)c2=O)cc1 get here?
Reply text: inactive

Inquiry: Just curious, what result did COc1cccc(NC(=O)COc2cccnc2[N+](=O)[O-])c1 get here?
Reply text: inactive

Inquiry: Just curious, what result did COc1cccc(N2CCN(CC(=O)Nc3ccnn3C3CCCC3)CC2)c1 get here?
Reply text: active

Inquiry: Just curious, what result did O=C(C1CCC1)N1C[C@H]2[C@@H](c3ccccc31)[C@@H](CO)N2C(=O)c1ccccc1F get here?
Reply text: inactive
